pKi: −log10 of the molar value.
Collected pKi for hCRTH2 receptor (Homo sapiens (Human), UniProt Q9Y5Y4) across several studies; compounds listed below.
// label = class 1 if pKi is not less than 8, otherwise class 0

compound="O=C(O)Cc1c2n(c3ccccc13)CC(n1nncc1Cc1ccc(F)cc1F)CC2 (single isomer, unassigned)" classification="class 1"
compound=Cc1c(CC(=O)O)c2cc(Cl)c(F)cn2c1Sc1ccc(S(C)(=O)=O)cc1 classification="class 1"
compound=N#Cc1cn(CC(=O)O)cc1-c1cccc2c1OC(F)(F)O2 classification="class 0"
compound=Cc1c(S(=O)(=O)Nc2ccc(Cl)cc2)c2cc(F)ccc2n1CC(=O)O classification="class 0"
compound=Cc1c(S(=O)(=O)NCc2ccc(Cl)cc2)c2cc(F)ccc2n1CC(=O)O classification="class 0"
compound=O=C(O)CCCCc1cc2cc(C(=O)N[C@@H]3CCCc4ccccc43)ccc2c(=O)n1-c1ccc(F)cc1 classification="class 1"
compound=CCc1nn(Cc2ccc(-c3nc4cc(F)c(Cl)cc4[nH]3)cc2F)c(CC)c1CC(=O)O classification="class 1"
compound=COc1ccc2[nH]c(-c3ccc(Cn4nc(C)c(CC(=O)O)c4C)c(F)c3)nc2n1 classification="class 1"
compound=Cc1cc(S(C)(=O)=O)ccc1Cn1c(C)c(CC(=O)O)c2cccnc21 classification="class 0"
compound=CCCc1nn(Cc2ccc(NC(=O)c3ccc(Cl)cc3)cc2)c(C(C)C)c1CC(=O)O classification="class 1"
compound=COc1ccccc1NS(=O)(=O)c1c(C)n(CC(=O)O)c2ccc(F)cc12 classification="class 0"
compound=CCc1nn(Cc2ccc(-c3nc4cc(Cl)c(Cl)cc4n3C)cc2)c(CC)c1CC(=O)O classification="class 0"
compound="O=C(O)CN1C(=O)C2(CC(=O)N(Cc3ccc(C(F)(F)F)o3)C2=O)c2cc(Cl)ccc21 (stereo not drawn)" classification="class 0"
compound=Cc1c(CC(=O)O)c2ccc(F)cn2c1Sc1ccc(S(=O)(=O)NC2CC2)cc1 classification="class 1"
compound=CCCCCc1nc2cc(NS(=O)(=O)c3ccc(F)cc3)ccc2n1CC(=O)O classification="class 0"
compound=Cc1nn(Cc2ccc(NC(=O)c3oc4ccc(F)cc4c3C)cc2F)c(C)c1CC(=O)O classification="class 1"
compound="CN(C(=O)C1(c2ccc(F)cc2)CC1(C)C)[C@@H]1CCc2c(CC(=O)O)c3ccccc3n2C1 (stereo partly drawn)" classification="class 1"
compound="CC(O)(c1ccccc1)c1cn(C2CCc3c(CC(=O)O)c4ccccc4n3C2)nn1 (stereo not drawn)" classification="class 0"
compound=Cc1nn(Cc2ccc(-c3nc4cc(C#N)ccc4[nH]3)cc2F)c(C)c1CC(=O)O classification="class 0"
